- Target entity: Lysine-specific histone demethylase 1A (Homo sapiens) (UniProt O60341)
- Experiment description: Inhibition of KDM1A in human NB4 cells assessed as increase in CD11b mRNA expression at biochemical IC50 measured after 24 hrs by RT-PCR analysis relative to control
- Format: cell-based
- Condition context: NB-4
Could you please report measured fold change (FC) for the items listed next?
Answers are plain numbers.

Answered cases to consult:
{"Molecule": "N[C@@H]1C[C@H]1c1ccc(NC(=O)c2ccc(N3CCOCC3)c(NC(=O)OCc3ccccc3)c2)cc1 (relative stereo)", "Attribute measured": "fold change (FC)", "Assay value": 3.8}
{"Molecule": "N[C@@H]1C[C@H]1c1ccc(NC(=O)c2ccc(NC(=O)OCc3ccccc3)c(N3CCOCC3)c2)cc1 (relative stereo)", "Attribute measured": "fold change (FC)", "Assay value": 3.2}

Fill in fold change (FC) for each of the 7 molecules listed.
1. CN1CCC(c2ccc(C(=O)Nc3ccc([C@@H]4C[C@H]4N)cc3)cc2)CC1.Cl (racemic)
2. CN1CCN(c2ccc(C(=O)Nc3ccc([C@@H]4C[C@H]4N)cc3)cc2)CC1
3. CN1CCN(c2ccc(C(=O)Nc3ccc([C@@H]4C[C@H]4N)cc3)cc2)CC1 (racemic)
4. CN1CCN(c2ccc(C(=O)Nc3ccc([C@@H]4C[C@H]4N)cc3)cc2NC(=O)OCc2ccccc2)CC1 (relative stereo)
5. Cl.N[C@@H]1C[C@H]1c1ccc(NC(=O)c2cccc(N3CCOC3=O)c2)cc1 (racemic)
6. CN1CCN(c2ccc(C(=O)Nc3ccc([C@H]4C[C@@H]4N)cc3)cc2)CC1
7. N[C@H]1CC[C@H](N[C@@H]2C[C@H]2c2ccccc2)CC1

Ans.
[3.4, 3.9, 3.2, 3, 2.9, 3.1, 5.1]

----------
- Experiment description: AUC (0 to infinity) in CD1 mouse at 5 mg/kg, iv administered as single dose
- Assay type: ADME, organism-based
- Set-up: dose 5 mg/kg, time infinity, route intravenous
- Condition context: in vivo
Attribute measured: AUC(0-inf) (µM·h)
Give bare numbers, in µM·h.

AUC(0-inf) recorded for this compound, Cl.N[C@@H]1C[C@H]1c1ccc(NC(=O)c2cccc(N3CCOC3=O)c2)cc1 (racemic) , is 4.62

----------
- Target entity: UniProt O60341
- Experiment description: Inhibition of KDM1A in human NB4 cells assessed as increase in GFI1B mRNA expression at biochemical IC50 measured after 24 hrs by RT-PCR analysis relative to control
- Assay type: cell-based
- Condition context: NB-4
Mark 1 for reported fold change (FC) of 5 or greater; mark 0 for anything smaller.

These recorded examples may help you get a feel for the data.
{"Compound": "CN1CCN(c2ccc(C(=O)Nc3ccc([C@@H]4C[C@H]4N)cc3)cc2NC(=O)OCc2ccccc2)CC1 (relative stereo)", "Class": 0}
{"Compound": "N[C@@H]1C[C@H]1c1ccc(NC(=O)c2ccc(NC(=O)OCc3ccccc3)c(N3CCOCC3)c2)cc1 (relative stereo)", "Class": 1}
{"Compound": "CN1CCC(c2ccc(C(=O)Nc3ccc([C@@H]4C[C@H]4N)cc3)cc2)CC1.Cl (racemic)", "Class": 0}
{"Compound": "Cl.N[C@@H]1C[C@H]1c1ccc(NC(=O)c2cccc(N3CCOC3=O)c2)cc1 (racemic)", "Class": 0}
{"Compound": "CN1CCN(c2ccc(C(=O)Nc3ccc([C@H]4C[C@@H]4N)cc3)cc2)CC1", "Class": 0}
{"Compound": "N[C@H]1CC[C@H](N[C@@H]2C[C@H]2c2ccccc2)CC1", "Class": 1}
{"Compound": "CN1CCN(c2ccc(C(=O)Nc3ccc([C@@H]4C[C@H]4N)cc3)cc2)CC1", "Class": 0}

Qu. Has N[C@@H]1C[C@H]1c1ccc(NC(=O)c2ccc(N3CCOCC3)c(NC(=O)OCc3ccccc3)c2)cc1 (relative stereo) a recorded fold change (FC) greater than or equal to 5?
Ans. 0

# credit: ChEMBL document CHEMBL3779820
